Source: patent US5294609A

- Target Or Test System: DNA gyrase (Escherichia coli, UniProt P0AES6)
- Construct: supercoiling of relaxed pUC18 plasmid
- Assay Notes: Inhibition of DNA gyrase activity (DNA gyrase supercoiling assay)
- Type: biochemical, E. coli H560
- Condition Notes: relaxed PUC18 substrate
Measure Name: maximum non-effective concentration of the test compound (MNC) (µg/mL)
Hi! Could you send only the number? It should be in µg/mL, unit omitted.

[[record]]
compound = "Cc1c(O)cc(O)c2c1C(=O)OC[C@H](N)C(=O)NCCSC2 [Example 9]"
reported_value = 1

[[record]]
compound = "COC(=O)[C@@H]1CSCc2c(O)cc(O)c(C)c2C(=O)OC[C@H](NC(=O)OC(C)(C)C)C(=O)N1 [Example 2]"
reported_value = 0.1

[[record]]
compound = "C=CCNC(=O)[C@@H]1CSCc2c(O)cc(OC)c(C)c2C(=O)OC[C@H](NC(=O)OC(C)(C)C)C(=O)N1 [Example 84]"
reported_value = 0.1

[[record]]
compound = "CO/N=C(\\C(=O)N[C@H]1COC(=O)c2c(C)c(OC(C)=O)cc(OC(C)=O)c2CSC[C@@H](C(=O)OC)NC1=O)c1csc(N)n1 [Example 10]"
reported_value = 10


Recorded result, Cc1c(O)cc(O)c2c1C(=O)OC[C@H](N)C(=O)N[C@H](C(=O)O)CSC2 [Example 4] , maximum non-effective concentration of the test compound (MNC): 1

Recorded result, CCOC(=O)[C@@H]1CSCc2c(O)cc(OC)c(C)c2C(=O)OC[C@H](NC=O)C(=O)N1 [Example 69] , maximum non-effective concentration of the test compound (MNC): 0.05

Recorded result, COC(=O)N[C@H]1COC(=O)c2c(C)c(OC)cc(O)c2CSC[C@@H](C(=O)OC)NC1=O [Example 137] , maximum non-effective concentration of the test compound (MNC): 0.2
